- System name: pooled human IgG (human IgG1, 2, 3 and 4)
Property measured: Enzyme Activity Endpoint Assay (purified): scIgG

Example entries begin here.
PRT-696 (protein) MTITSVWTKGVTPPTPEDFRYNNEDVLHAPYVPNQGWYDITKTFDGGDNLLCGAATAGNMLHWWFDQNKEEIERYLKKYPEKQKIIFNNQELFDVRAAINSKDSQTNSKLFNYFRDKAFPNLSARQLGVMPDLVLDMFINGYYLNLGKTQSTDVNRPYQDPDKRGGIFDDVFKEGDQTTLLTARHDLKNGGLNEISDLIKQELQSGKALALSHTYANVRINHVINLWGADFDAEGNLIAIYVTDSDANQSIGMKKYKVGVNANGKVAISAKKIEGDNIGAQVLGLFTLSTGQEIWQKLSLEHHHHHH
19 ng/µL
PRT-392 (protein) MVTSVWTKGVTPPTNFTYGEDVLHAPYVANQGWYDITKTFNGKDDLLCGAATAGNMLHWWFDQNKEQIENYLKKHPEKQKINFNGEQMFDVKEAIDTKDSQLDSKLFEYFKEKAFPYLSTKHLGVFPDHVIDMFINGYRLSLTNHGPTPVKRGSKDPRGGIFDAVFTRGVQSKLLTNRHDFKEKTLKEISDLIKQELTEGKALGISHTYANVRINHVINLWGADFDAEGNLEAIYVTDSDSNASIGMKKYFVGVNSNGKVAISAKEIEEDNIGAQVLGLFTLSTGQDIWNQTN
196 ng/µL
PRT-684 (protein) MQITSVWTKGVTPLTPEQFTNNNEDVIHAPYLANQGWYDITKTFNGKDNLLCGAATAGNMLHWWFDQNKEEIEAYLKKHPEKQKIIFNNQELFDLKKAIDTKDSQTNSALFNYFRDKAFPNLSARQLGVMPDLVLDMFINGYYLNVFKTQSTDVNRPYQTKDKRGGIFDAVFTRGDQTTLLTARHDLKNKGLNEISDIIKQELTEGKALALSHTYANVSISHVINLWGADFNAEGNLIAIYVTDSDANASIGMKKYFVGVNSHGKVAISAKKIEGENIGAQVLGLFTLSSGQDIWQKLSLEHHHHHH
0 ng/µL

Moving on to another protein below.
Fill in: Enzyme Activity Endpoint Assay (purified): scIgG of PRT-377 (protein) MVTSVWTKGVTPPTNFTYGEDVLHAPYVANQGWYDITKTFNGKDDLLCGAATAGNMLHWWFDQNKEQIENYLKKHPEKQKINFNGEQMFDVKEAIDTKDSQLDSKLFEYFLEKAFPYLSTKHLGVFPDHVIDMFINGYRLSLTNHGPTPVKRGSKDPRGGIFDAVFTRGDQSKLLTNRHDFKEKTLKEISDLIKQELTEGKALGISHTYANVRINHVINLWGADFDAEGNLEAIYVTDSDSNASIGMKKYFVGVNSNGKVAISAKEIEEDNIGAQVLGLFTLSTGQDIWNQTN is ___
242 ng/µL
